B1: 1ZHC (parent)
chain: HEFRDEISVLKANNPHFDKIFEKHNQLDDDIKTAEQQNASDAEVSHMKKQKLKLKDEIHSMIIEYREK

- Variants of: B1
- procedureSummary: folding stability dG (cDNA display proteolysis); higher = more stable
- details: PBS, room temperature
readout: folding stability dG (kcal/mol)
Write the value in kcal/mol as a bare number.

Param item = `L52W` ; retrieve measured folding stability dG.
0.394

# input variant: `K48L` ; wanted: its folding stability dG
0.4

I would be grateful if you could share the reported folding stability dG for `E57L` .
0.992

For the variant shown here, `N13R` , give the reported folding stability dG.
1

What value of folding stability dG has been recorded for this entry: `Q36A`
1.01
